TARGET_OF_ASSAY: BRD4-BD1 (Homo sapiens (Human))
ASSAY_TEXT: BRD4 AlphaScreen Assay (Example A2), BRD4-BD1
Type: binding
TEST_SETTINGS: Assay A2, AlphaScreen, BRD4-BD1; read-out: BRD4 BD-1 enzyme IC50
pIC50: −log10 of the molar value.
Catalogue of pIC50 readings, one per entry.

Q. // query pIC50 value for entry Cc1noc(C)c1-c1ccc2[nH]c(=O)n3c2c1OCC3(CN)c1ccccn1 (stereo not shown) [Example 73, bis(2,2,2-trifluoroacetate)]
A. 6.00 to 7.00

Q. // query pIC50 value for entry Cc1noc(C)c1-c1ccc2nc(N3CC[C@@H](NC(=O)N4CCOCC4)C3)n3c2c1OC[C@@H]3c1ccccn1
A. > 7.00

Q. // query pIC50 value for entry CNC(=O)C1Oc2c(-c3c(C)noc3C)ccc3[nH]c(=O)n(c23)C1c1ccccn1 (stereo not shown) [Example 76, 2,2,2-trifluoroacetate]
A. 6.00 to 7.00

Q. // query pIC50 value for entry Cc1noc(C)c1-c1ccc2[nH]c(=S)n3c2c1OCC3c1ccccn1 (stereo not shown)
A. > 7.00

Q. // query pIC50 value for entry Cc1noc(C)c1-c1cc(CO)c2[nH]c(=O)n3c2c1OCC3c1ccccn1 (stereo not shown)
A. > 7.00

Q. // query pIC50 value for entry Cc1noc(C)c1-c1ccc2nc(N3CCCN(S(C)(=O)=O)CC3)n3c2c1OC[C@@H]3c1ccccn1
A. > 7.00

Q. // query pIC50 value for entry Cc1noc(C)c1-c1ccc2nc(C(N)=O)n3c2c1OC[C@@H]3c1ccccn1
A. > 7.00

* * *

Tested on: KMS.12.BM cells
ASSAY_TEXT: KMS.12.BM Cell Viability Assay (Example B1)
Format: cell-based, human
TEST_SETTINGS: Homo sapiens, KMS-12-BM, 72 h, 3 days, Cell Titer-GLO, read-out: KMS cellular IC50
Description: KMS.12.BM cell line (human myeloma) was purchased from JCRB (Osaka, Japan) and maintained in RPMI with 10% FBS culture medium. To measure the cytotoxic activity of the compounds through ATP quantitation, the KMS.12.BM cells are plated in the RPMI culture medium at 5000 cells/well/per 100 μL into a 96-well polystyrene clear black tissue culture plate (Greiner-bio-one through VWR, NJ), in the presence or absence of a concentration range of test compounds. […]
MEASUREMENT_LABEL: IC50

MOLECULE	MEASUREMENT_LABEL	MEASURED_VALUE
Cc1noc(C)c1-c1ccc2[nH]c(=O)n3c2c1OCC3c1ccccn1 (single isomer, unassigned) [Example 15]	IC50	< 1000 nM

Could you now consider this next molecule?
Q. // query IC50 value for entry Cc1noc(C)c1-c1ccc2[nH]c(=O)n3c2c1OCC3c1ccccn1 (racemic) [Example 13]
A. < 1000 nM

* * *

TARGET_OF_ASSAY: BRD4-BD1 (Homo sapiens (Human))
ASSAY_TEXT: BRD4 AlphaScreen Assay (Example A2), BRD4-BD1
Assay type: binding
TEST_SETTINGS: Assay A2, AlphaScreen, BRD4-BD1; read-out: BRD4 BD-1 enzyme IC50
pIC50: −log10 of the molar value.
Catalogue of pIC50 readings, one per entry.

COMPOUND	pIC50
Cc1noc(C)c1-c1ccc2nc(C3CCNC3)n3c2c1OC[C@@H]3c1ccccn1 (single isomer, unassigned; diastereomer 1) [Example 106A]	> 7.00
Cc1noc(C)c1-c1cc(CNC(C)C)c2[nH]c(=O)n3c2c1OCC3c1ccccn1 (stereo not shown)	6.00 to 7.00
Cc1noc(C)c1-c1ccc2[nH]c(=O)n3c2c1OC(C)C3c1ccccn1 (stereo not shown)	> 7.00

Could you now consider this next compound?
Q. // query pIC50 value for entry Cc1noc(C)c1-c1cc(C)c2[nH]c(=O)n3c2c1OCC3c1ccccc1 (stereo not shown)
A. > 7.00
